Test: recombinant barcode read abundance after kanamycin selection (control-corrected) (log10(CPM+1)); higher = more efficient recombination; sequences stand for … in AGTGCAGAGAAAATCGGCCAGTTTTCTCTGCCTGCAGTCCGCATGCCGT…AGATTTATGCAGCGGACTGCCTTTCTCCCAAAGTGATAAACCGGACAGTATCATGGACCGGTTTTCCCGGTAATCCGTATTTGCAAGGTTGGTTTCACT; site = the 11-nt target;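 further: IS621 recombinase and bridge RNA in Escherichia coli cells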
What recombinant barcode read abundance (log10) was measured for each of the following?
Answers are plain numbers.

Solved entries (count: 5):
In [3]: df
Out[3]:
                              sequence_code  reported
0  GCACCGCCTTGGGTTCTAACCTGTTGCCT (site CCACCGCCTAG)    0.0991
1  CACCAGACTTGGGTTCTAACCTGTTGCCA (site CACCAGACTTG)     0.539
2  ACGGTGACTTGGGTTCTAACCTGTTGCCT (site CCGGTGACTAG)     0.298
3  CGACAGTCTTGGGTTCTAACCTGTTGCCT (site CGACAGTCTAG)     0.687
4  GAATGAGCTTGGGTTCTAACCTGTTGCCT (site CTCACGACTCT)     0.014

Items follow; give recombinant barcode read abundance (log10) for each.
1. GTTTCGTCTTGGGTTCTAACCTGTTGCCT (site GTTTCGACTAG)
2. GAAGACGCTTGGGTTCTAACCTGTTGCCT (site GAAGGCGCTAG)
3. GCCATAACTTGGGTTCTAACCTGTTGCCT (site GCCATCACTAG)
4. TACACGACTTGGGTTCTAACCTGTTGCGG (site TACACTACTCG)
5. ACATTTACTTGGGTTCTAACCTGTTGCCT (site ACATTTACTAG)
6. TCCCGGACTTGGGTTCTAACCTGTTGCCT (site TCACGGACTAG)

0.0118
0
0.0218
0
0.0855
0.212

Reference source: the supplement of paper PMC11208160
